Origin of measurements: patent US20250186597A1

Recorded EC50, HEK-Blue IL18R reporter assay values for a group of binders are listed next.
Molecular target: T1, IL-18R on HEK-Blue IL18R reporter cells (InvivoGen, #hkb-hmi118) (UniProt Q13478 19-541; O95256 20-599, limits assumed)
T1 sequence (looked up) 1: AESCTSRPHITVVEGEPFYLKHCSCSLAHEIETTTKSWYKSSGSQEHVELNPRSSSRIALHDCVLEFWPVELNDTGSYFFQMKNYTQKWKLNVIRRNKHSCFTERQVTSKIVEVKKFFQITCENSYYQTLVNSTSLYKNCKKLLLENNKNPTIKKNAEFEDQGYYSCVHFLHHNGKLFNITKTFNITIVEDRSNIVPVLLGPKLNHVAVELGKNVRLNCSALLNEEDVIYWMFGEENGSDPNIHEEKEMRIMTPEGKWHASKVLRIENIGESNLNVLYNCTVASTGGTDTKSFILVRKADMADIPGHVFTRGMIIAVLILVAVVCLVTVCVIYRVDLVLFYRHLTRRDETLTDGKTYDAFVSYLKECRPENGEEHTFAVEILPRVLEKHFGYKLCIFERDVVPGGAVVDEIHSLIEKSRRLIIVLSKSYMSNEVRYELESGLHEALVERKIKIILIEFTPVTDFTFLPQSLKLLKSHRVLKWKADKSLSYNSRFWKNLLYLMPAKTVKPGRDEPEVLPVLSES
T1 sequence (looked up) 2: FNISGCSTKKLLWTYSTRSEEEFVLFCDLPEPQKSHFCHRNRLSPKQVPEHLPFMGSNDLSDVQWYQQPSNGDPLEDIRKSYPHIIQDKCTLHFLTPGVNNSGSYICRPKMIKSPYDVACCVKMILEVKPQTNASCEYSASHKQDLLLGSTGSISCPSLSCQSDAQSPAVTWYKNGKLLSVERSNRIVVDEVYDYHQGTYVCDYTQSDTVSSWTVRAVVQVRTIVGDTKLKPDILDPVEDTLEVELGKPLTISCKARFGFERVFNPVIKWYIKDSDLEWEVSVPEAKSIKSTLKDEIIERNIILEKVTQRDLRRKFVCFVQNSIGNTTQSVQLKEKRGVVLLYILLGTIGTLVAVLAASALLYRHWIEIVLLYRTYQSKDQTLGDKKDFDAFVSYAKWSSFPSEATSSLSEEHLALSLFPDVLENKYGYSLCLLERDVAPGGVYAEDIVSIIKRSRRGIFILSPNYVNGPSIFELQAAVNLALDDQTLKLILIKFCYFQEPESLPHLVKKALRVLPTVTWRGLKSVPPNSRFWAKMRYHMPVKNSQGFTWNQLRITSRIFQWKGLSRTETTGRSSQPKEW
Test: cell-based or functional assay
Units required after the number.

For orientation, consider the following solved cases.
IL-18 polypeptide of SEQ ID NO: 56 (E6K, K53A, C38S, C76S, C127S) (ligand) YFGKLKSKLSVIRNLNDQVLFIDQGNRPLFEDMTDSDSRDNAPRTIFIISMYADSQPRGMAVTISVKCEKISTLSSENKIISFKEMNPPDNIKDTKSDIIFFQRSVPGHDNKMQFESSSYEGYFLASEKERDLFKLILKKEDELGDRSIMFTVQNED = 3.73 pM
IL-18 polypeptide C163 (V11I, C38A, C76A, Q103K, C127A) (ligand) YFGKLESKLSIIRNLNDQVLFIDQGNRPLFEDMTDSDARDNAPRTIFIISMYKDSQPRGMAVTISVKCEKISTLSAENKIISFKEMNPPDNIKDTKSDIIFFKRSVPGHDNKMQFESSSYEGYFLAAEKERDLFKLILKKEDELGDRSIMFTVQNED = 1.5 pM
IL-18 polypeptide of SEQ ID NO: 62 (E6K, C38A, K53A, C127A) (ligand) YFGKLKSKLSVIRNLNDQVLFIDQGNRPLFEDMTDSDARDNAPRTIFIISMYADSQPRGMAVTISVKCEKISTLSCENKIISFKEMNPPDNIKDTKSDIIFFQRSVPGHDNKMQFESSSYEGYFLAAEKERDLFKLILKKEDELGDRSIMFTVQNED = 0.17 pM
IL-18 polypeptide of SEQ ID NO: 59 (E6K, C38A, K53A) (ligand) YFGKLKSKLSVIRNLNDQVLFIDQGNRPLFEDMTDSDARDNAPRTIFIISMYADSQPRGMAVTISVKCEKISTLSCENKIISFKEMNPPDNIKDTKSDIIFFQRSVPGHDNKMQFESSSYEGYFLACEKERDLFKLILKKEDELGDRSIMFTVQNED = 0.268 pM
IL-18 polypeptide of SEQ ID NO: 42 (E06K, K53A, S55A, T63A) (ligand) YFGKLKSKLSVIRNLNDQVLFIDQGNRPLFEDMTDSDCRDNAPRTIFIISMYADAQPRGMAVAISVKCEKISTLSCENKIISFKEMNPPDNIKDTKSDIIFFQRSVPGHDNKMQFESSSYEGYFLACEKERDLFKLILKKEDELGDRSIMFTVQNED = 0.79 pM
IL-18 polypeptide C154 (V11I, E31A, D37A, C38A, K53A, C76A, C127A) (ligand) YFGKLESKLSIIRNLNDQVLFIDQGNRPLFADMTDSAARDNAPRTIFIISMYADSQPRGMAVTISVKCEKISTLSAENKIISFKEMNPPDNIKDTKSDIIFFQRSVPGHDNKMQFESSSYEGYFLAAEKERDLFKLILKKEDELGDRSIMFTVQNED = 11.9 pM

Here's the next entry for you.
Prompt line: Answer with the recorded EC50, HEK-Blue IL18R reporter assay of IL-18 polypeptide C145 (V11I, C38A, K53A, S55A, C76A, C127A) (ligand) YFGKLESKLSIIRNLNDQVLFIDQGNRPLFEDMTDSDARDNAPRTIFIISMYADAQPRGMAVTISVKCEKISTLSAENKIISFKEMNPPDNIKDTKSDIIFFQRSVPGHDNKMQFESSSYEGYFLAAEKERDLFKLILKKEDELGDRSIMFTVQNED only.
Response line: 3.63 pM
